Listed binders paired with reported Ratio OD(Variant)/OD(WT)
assayed.target: HRgpA-6H (Porphyromonas gingivalis) (UniProt P28784)
experimental.protocol: ELISA on coated HRgpA-6H

Solved entries (count: 2):
[[record]]
binder = "KB001 mouse Fab FASEBA VH Y106L (Fab, V domains shown) VH: EVQLKQSGPGLVAPSQSLSITCTVSGFSLSIYSVHWVRQPPGKGLEWLGMIWGGGSSDYNSALKSRLSISKDNSKSQVFLKMNSLQTDDTAMYYCARNGNFYAMDLWGQGTSVTVSS VL: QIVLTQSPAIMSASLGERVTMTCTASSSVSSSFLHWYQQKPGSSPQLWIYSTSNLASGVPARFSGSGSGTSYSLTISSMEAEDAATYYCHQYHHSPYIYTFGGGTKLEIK"
recorded_value = 1.03

[[record]]
binder = "KB001 mouse Fab FASEBA VH S28A (Fab, V domains shown) VH: EVQLKQSGPGLVAPSQSLSITCTVSGFALSIYSVHWVRQPPGKGLEWLGMIWGGGSSDYNSALKSRLSISKDNSKSQVFLKMNSLQTDDTAMYYCARNGNFYAMDYWGQGTSVTVSS VL: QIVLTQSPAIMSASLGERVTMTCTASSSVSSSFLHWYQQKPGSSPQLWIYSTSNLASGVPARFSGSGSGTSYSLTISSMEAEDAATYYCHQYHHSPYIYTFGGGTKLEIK"
recorded_value = 0.904


q: Record request: Ratio OD(Variant)/OD(WT) value, item KB001 mouse Fab FASEBA VH I51V (Fab, V domains shown) VH: EVQLKQSGPGLVAPSQSLSITCTVSGFSLSIYSVHWVRQPPGKGLEWLGMVWGGGSSDYNSALKSRLSISKDNSKSQVFLKMNSLQTDDTAMYYCARNGNFYAMDYWGQGTSVTVSS VL: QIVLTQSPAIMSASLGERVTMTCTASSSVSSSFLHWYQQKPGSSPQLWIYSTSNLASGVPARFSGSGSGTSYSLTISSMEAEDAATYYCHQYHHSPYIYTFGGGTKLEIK
a: 0.903
